experiment: NCI Yeast Anticancer Drug Screen. Data for the wt1 strain (AID 149);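 also: 0% = growth of vehicle-treated wt1 cultures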; settings: S. cerevisiae wt1 strain (SPY 50644) growth inhibition; at 33.0 µM
This is part of a sample that, as a whole, favours compounds with a hit. Of some 79,000 tested, about 15% had one in any assay. The source made the active and inactive calls. Rule as the data show it: active = growth inhibition above about 70%; inactive = the rest.
Hi there, use one of these labels in your reply, thanks! true (1) (active), false (0) (inactive)

Which outcome was assigned to CC(C)OC(CCC#N)c1ccc(Cl)cc1 (stereo unspecified) in this test?
false (0)

Entry to check: `Cc1c2ccncc2c(C)c2c1oc1ccccc12`
true (1)

Entry to check: `Cc1ccc(C(C)C)c(C(=C2C=CC(=[N+](C)C)C=C2)c2c(C(C)C)ccc(C)c2O)c1O`
true (1)

Entry to check: COc1ccc(/C(=N/O)c2ccccc2C2=Nc3ccccc3C(NCc3ccccc3)O2)cc1C (stereo unspecified)
false (0)

Entry to check: CCC(C)/C(C)=N/NC(N)=O (stereo unspecified)
false (0)

Entry to check: `Cc1cnc(/C=N\NC(N)=S)c2cccc(N)c12`
false (0)

* * *

experiment: NCI Yeast Anticancer Drug Screen. Data for the rad18 strain (AID 177); details: S. cerevisiae rad18 mutant growth inhibition; at 100.0 µM
This is part of a sample that, as a whole, favours compounds with a hit. Of some 79,000 tested, about 15% had one in any assay. The source made the active and inactive calls. Rule as the data show it: active = growth inhibition above about 70%; inactive = the rest.
Hi there, use one of these labels in your reply, thanks! true (active), false (inactive)

Which outcome was assigned to `CN(NC(=O)/C(=C/C=C/c1ccccc1)NC(=O)c1ccccc1)C1=C(Cl)C(=O)[N+](c2ccccc2)=CC1` in this test?
true

Entry to check: CC1=NN(C(=O)CC(=O)N(C(=O)c2ccccc2)c2ccc(Cl)cc2)C(=O)C1N=Nc1ccc([N+](=O)[O-])cc1 (centres undefined)
true

Entry to check: `O=C(CCC(=O)c1ccc(O)cc1)Oc1ccc(O)cc1`
false

Entry to check: CCC1SC(=S)N(c2ccc(Cl)cc2)C1=O (centres undefined)
true

Entry to check: `Cc1cnccc1N=Nc1ccc(N(C)C)cc1`
false

Entry to check: `Cn1c(COc2ccc(/C=N/NC(=O)CCC(=O)N/N=C/c3ccc(OCc4c[n+]5ccccc5n4C)cc3)cc2)c[n+]2ccccc12`
true

Entry to check: O=C(Nc1ccn(C2CC(O)C(COC(c3ccccc3)(c3ccccc3)c3ccccc3)O2)c(=O)n1)c1ccccc1 (centres undefined)
true

Entry to check: `C[n+]1c(-c2ccc(NC(=O)c3ccc(C(=O)Nc4ccc(-c5cn6ccccc6[n+]5C)cc4)cc3)cc2)cn2ccccc21`
true

Entry to check: `O=C(c1c(F)c(F)c(F)c(F)c1F)c1c(F)c(F)c(F)c(F)c1F`
true

* * *

assay: NCI Yeast Anticancer Drug Screen. Data for the bub3 strain (AID 167); details: S. cerevisiae bub3 mutant strain, at 5.0 µM (retest, dose inferred, filed as 0.5), active compounds read high
This is part of a sample that, as a whole, favours compounds with a hit. Of some 79,000 tested, about 15% had one in any assay.
Record true (1) whenever growth inhibition is at 30% or higher; record false (0) when lower.

Is it the case that `c1cc2ccc3cc4ncccc4c4ccc(c1)c2c34` has growth inhibition reaching or exceeding 30%?
false (0)

Entry to check: O=C1OC(/C=C/c2ccccc2)Sc2ccccc21 (configuration not stated)
false (0)

Entry to check: `Nc1cccc2cc(Cl)cnc12`
true (1)

Entry to check: `O=S(=O)(O)c1ccc2c(N=Nc3c(O)ccc4ccccc34)cccc2c1`
false (0)

Entry to check: c1ccc2cc(OCC3CO3)c(OCC3CO3)cc2c1 (configuration not stated)
false (0)

Entry to check: [N-]=[N+]=NC1CC(n2ccc(=O)[nH]c2=O)OC1COC(c1ccccc1)(c1ccccc1)c1ccccc1 (configuration not stated)
false (0)

Entry to check: COc1ccc(/C(=N/O)c2ccccc2C2=Nc3ccccc3C(NCc3ccccc3)O2)cc1C (configuration not stated)
false (0)

Entry to check: `[Cl][Pt+2][Cl].[NH-]CC1(C[NH-])CCCCC1`
true (1)

Entry to check: `CCOc1ccc2ccc3cccnc3c2n1`
false (0)

Entry to check: `Cc1ccc(Nc2n[nH]c(=S)s2)cc1C`
true (1)

Entry to check: `Cc1cc(NC(=S)SCc2ccc(Cl)cc2)ccc1Cl`
true (1)
